The origin of these recorded values is patent US20210388087A1.

- Measurement target: T1, Human CD137 ECD (human)
- T1 construct: also called 4-1BB
- T1 sequence (chain, as listed by the source limits assumed): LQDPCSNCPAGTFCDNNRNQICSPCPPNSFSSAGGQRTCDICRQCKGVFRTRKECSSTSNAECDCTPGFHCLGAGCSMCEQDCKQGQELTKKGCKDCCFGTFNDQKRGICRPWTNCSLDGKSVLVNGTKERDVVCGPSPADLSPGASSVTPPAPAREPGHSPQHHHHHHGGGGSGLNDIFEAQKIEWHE
- Method description: single mutant vs template dBBDu183H
Below, each of the binders is paired with its reported fold change of affinity value.
# unit: fold | format: bare number

H183/L072 VH Y59T (antibody, name in Kabat numbering, V domains shown) VH: QVQLVESGGGLVQPGRSLRLSCAASGFTFSNAWMHWVRQAPGKGLEWVAQIKDKGNAYAAYTAPSVKGRFTISRDDSKNSIYLQMNSLKTEDTAVYYCHYVHYASASTVLPAFGVDAWGQGTTVTVSS VL: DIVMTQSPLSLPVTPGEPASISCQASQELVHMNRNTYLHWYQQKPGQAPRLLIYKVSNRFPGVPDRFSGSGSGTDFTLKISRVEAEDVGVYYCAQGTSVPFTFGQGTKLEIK
0.8
H183/L072 VH N53Y (antibody, name in Kabat numbering, V domains shown) VH: QVQLVESGGGLVQPGRSLRLSCAASGFTFSNAWMHWVRQAPGKGLEWVAQIKDKGYAYAAYYAPSVKGRFTISRDDSKNSIYLQMNSLKTEDTAVYYCHYVHYASASTVLPAFGVDAWGQGTTVTVSS VL: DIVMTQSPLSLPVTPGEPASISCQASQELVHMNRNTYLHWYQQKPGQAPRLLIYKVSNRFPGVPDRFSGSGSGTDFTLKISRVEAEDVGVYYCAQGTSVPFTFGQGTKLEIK
0
H183/L072 VH F29P (antibody, name in Kabat numbering, V domains shown) VH: QVQLVESGGGLVQPGRSLRLSCAASGFTPSNAWMHWVRQAPGKGLEWVAQIKDKGNAYAAYYAPSVKGRFTISRDDSKNSIYLQMNSLKTEDTAVYYCHYVHYASASTVLPAFGVDAWGQGTTVTVSS VL: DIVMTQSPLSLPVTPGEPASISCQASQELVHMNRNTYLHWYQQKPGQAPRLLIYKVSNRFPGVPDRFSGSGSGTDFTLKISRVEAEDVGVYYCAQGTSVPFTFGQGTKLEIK
0.1

Attention now shifts to the item below.
Returns the measured fold change of affinity for the input binder. Input: H183/L072 VH T28W (antibody, name in Kabat numbering, V domains shown) VH: QVQLVESGGGLVQPGRSLRLSCAASGFWFSNAWMHWVRQAPGKGLEWVAQIKDKGNAYAAYYAPSVKGRFTISRDDSKNSIYLQMNSLKTEDTAVYYCHYVHYASASTVLPAFGVDAWGQGTTVTVSS VL: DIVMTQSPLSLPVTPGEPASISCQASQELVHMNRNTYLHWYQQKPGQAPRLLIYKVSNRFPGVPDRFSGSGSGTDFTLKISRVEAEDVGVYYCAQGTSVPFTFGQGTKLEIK 0.8
